Please respond with reported half-life at 1 μM for every item in the list.
assay: Microsomal Stability Assay, human liver microsomes; assay type: in vitro ADME; conditions: pH 7.4, 1 μM compound, 1.0 mg/mL microsome, NADPH, read-out: HLM t1/2
Answers are plain numbers, in h.

Here are 3 compounds together with their reported answers.
1. O=C(Nc1nc(Nc2ncnc3ccccc23)n(-c2ccccc2)n1)c1ccccc1; 0.642
2. O=C(/C=C/c1ccccc1)Nc1nc(NC(=O)c2ccccc2)nn1-c1ccccc1; 1.3
3. O=C(/C=C/c1ccccc1)Nc1nc(NC(=O)c2ccccc2)nn1-c1ccccn1; 0.115

Provide each entry's half-life at 1 μM from the list below.
1. Cc1ccccc1C(=O)Nc1nc(NC(=O)c2ccccc2C)n(-c2ccccc2)n1
2. O=C(Nc1nc(NC(=O)c2ccccc2)n(-c2ccccc2)n1)c1ccccc1

Reply:
9.63
2.52

* * *

assay: Oral Bioavailability (PO) and Pharmacokinetics Assay; format: in vivo, Sprague-Dawley rats; conditions: male, Sprague-Dawley, plasma; rat, IP 3 mg/kg
ASSAY METRIC: Tmax (h)
One number for each entry, in h.

Query: Data request, read-out Tmax, for Cc1ccccc1C(=O)Nc1nc(NC(=O)c2ccccc2C)n(-c2ccccc2)n1
Reply: 1.3

* * *

What log10(EC50) was measured for each of the following?
Molecular target: UniProtKB O60260
Sequence (O60260 1-465): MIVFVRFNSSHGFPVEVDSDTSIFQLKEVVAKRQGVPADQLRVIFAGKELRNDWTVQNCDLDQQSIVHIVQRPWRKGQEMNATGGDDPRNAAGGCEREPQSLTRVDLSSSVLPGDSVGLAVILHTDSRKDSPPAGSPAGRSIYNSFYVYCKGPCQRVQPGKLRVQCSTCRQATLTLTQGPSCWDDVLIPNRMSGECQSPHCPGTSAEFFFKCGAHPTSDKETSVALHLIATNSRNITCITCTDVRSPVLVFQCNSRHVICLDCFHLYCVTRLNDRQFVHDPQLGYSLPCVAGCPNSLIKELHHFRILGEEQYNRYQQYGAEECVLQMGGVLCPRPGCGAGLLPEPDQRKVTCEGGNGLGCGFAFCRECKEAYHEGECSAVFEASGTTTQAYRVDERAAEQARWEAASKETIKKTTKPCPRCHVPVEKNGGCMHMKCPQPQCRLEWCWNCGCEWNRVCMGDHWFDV
Assay: Activity-Based Probe Assay using an Ubiquitin vinyl sulfone probe (TR-FRET)
Format: biochemical
Details: Parkin activation, HA-Ub-VS probe, heat activated Parkin; read-out: Probe Assay EC50 (μM) [Example 2]
Text: An Ubiquitin vinyl sulfone probe can be used that irreversibly binds to the active site cysteine of Parkin ligase. Covalent attachment of the probe to the Parkin can be monitored by TR-FRET. Candidate activator compounds can be identified by increasing the activity of Parkin ligase due to an increase in TR-FRET signal. […] Data Analysis: The Data can be read in CSV files. […]
Heads up, the numbers here are log10 of EC50 in µM units.

Take a look at these entries with their results.
1) O=C(Nc1nc(NC(=O)c2ccccc2)n(-c2ccc(OC(F)(F)F)cc2)n1)c1ccccc1 [Compound Z1]; 0.00
2) CC(C)C(=O)Nc1nc(Nc2ncnc3ccccc23)n(-c2ccccc2)n1 [Compound K1]; 0.96
3) Cc1ccccc1C(=O)Nc1nc(NC(=O)/C=C/c2ccccc2)n(-c2ccccc2)n1 [Compound C2]; 0.60
4) O=C(Nc1nc(NC(=O)c2ccccc2)n(-c2ccc(-c3ccccc3)cc2)n1)c1ccccc1 [Compound X1]; 1.79

Would you mind listing log10(EC50) for each of the following compounds?
1. O=C(Nc1nc(Nc2ncnc3ccccc23)n(-c2ccccc2)n1)c1ccco1 [Z]
2. Cc1ccccc1C(=O)Nc1nc(-c2ccccn2)nn1-c1ccc(OC(F)(F)F)cc1 [Compound H3]
3. C=C(C)C(=O)Nc1nc(Nc2ncnc3ccccc23)n(-c2ccccc2)n1 [Compound M1]
4. O=C(Nc1nc(NC(=O)c2ccccc2)n(-c2ccc3ccccc3n2)n1)c1ccccc1 [Compound D2]
5. O=C(Nc1nc(NC(=O)c2cccs2)nn1-c1ccccc1)c1ccccc1 [Compound G2]
6. O=C(Nc1nc(NC(=O)c2ccc3ccccc3n2)n(-c2ccccc2)n1)c1ccccc1 [Compound B2]
7. Cc1ccccc1C(=O)Nc1nc(NC(=O)c2cccs2)nn1-c1ccccc1 [Compound K2]

Reply:
[0.96, 0.48, 1.08, 1.95, 0.30, 0.60, 0.78]

Query: Look at this compound and give its reported log10(EC50). O=C(Nc1nc(NC(=O)c2ccccc2)n(-c2ccc3c(c2)OCCO3)n1)c1ccccc1 [Compound E2]
Reply: 0.78

* * *

tested on: A549 (lung); experiment: Cancer Cell Proliferation Assay (acid phosphatase, 72 hrs); assay type: cell-based; conditions: Homo sapiens, A549, 72 h, heading: IC50 on cancer cell line proliferation
ASSAY METRIC: IC50 (µM)
One number for each entry, in µM.

Query: Entry O=C(Nc1nc(Nc2ncnc3ccccc23)n(-c2ccccc2)n1)c1ccccc1 [Compound L] has what IC50?
Reply: 1.55

* * *

test system: HCT-116 (colon); test: Cancer Cell Proliferation Assay (acid phosphatase, 72 hrs); type: cell-based; details: Homo sapiens, read-out: IC50 on cancer cell line proliferation, HCT-116
ASSAY METRIC: IC50 (nM)
Give bare numbers, in nM.

1) O=C(Nc1nc(-c2ccccn2)nn1-c1ccccc1)c1ccccc1 [Compound Y1]; 351
2) Cc1ccccc1C(=O)Nc1nc(-c2ccccn2)nn1-c1ccc(OC(F)(F)F)cc1 [Compound H3]; 485

Field: next compound
Query: Query (compound): O=C(Nc1nc(Nc2ncnc3ccccc23)n(-c2ccccc2)n1)c1ccccc1 [Compound L] ; field requested: IC50
Reply: 939

* * *

experiment: Oral Bioavailability (PO) and Pharmacokinetics Assay; assay type: in vivo, Sprague-Dawley rats; conditions: male, Sprague-Dawley, plasma; rat, PO 5 mg/kg; read-out: C0 or Cmax (ng/mL): Cmax
ASSAY METRIC: Cmax (ng/mL)
One number for each entry, in ng/mL.

Answered examples (3):
1) O=C(Nc1nc(NC(=O)c2ccccc2)n(-c2ccccc2)n1)c1ccccc1; 249
2) O=C(/C=C/c1ccccc1)Nc1nc(NC(=O)c2ccccc2)nn1-c1ccccc1; 50.5
3) Cc1ccccc1C(=O)Nc1nc(NC(=O)c2ccccc2)n(-c2ccccc2)n1; 91

Note: attention shifts to another entry.
Query: Look up Cmax: Cc1ccccc1C(=O)Nc1nc(NC(=O)c2ccccc2)nn1-c1ccccc1
Reply: 52.4

* * *

experiment: Oral Bioavailability (PO) and Pharmacokinetics Assay; assay type: in vivo, Sprague-Dawley rats; conditions: male, Sprague-Dawley, plasma; rat, PO 5 mg/kg; read-out: F (%) oral bioavailability
ASSAY METRIC: bioavailability (%)
Answers are plain numbers, in %.

1. Cc1ccccc1C(=O)Nc1nc(NC(=O)c2ccccc2)nn1-c1ccccc1 [Compound K]; 4

For the 3 compounds below, give their bioavailability values.
1. O=C(/C=C/c1ccccc1)Nc1nc(NC(=O)c2ccccc2)nn1-c1ccccc1 [Compound C]
2. Cc1ccccc1C(=O)Nc1nc(NC(=O)c2ccccc2)n(-c2ccccc2)n1 [Compound H]
3. O=C(Nc1nc(NC(=O)c2ccccc2)n(-c2ccccc2)n1)c1ccccc1 [Compound A]

Reply:
1. 2.4
2. 6.2
3. 6.85

* * *

Please respond with reported log10(EC50) for every item in the list.
biological target: Parkin ligase (Homo sapiens, UniProt O60260); assay: Activity-Based Probe Assay using an Ubiquitin vinyl sulfone probe (TR-FRET); type: biochemical; conditions: Parkin activation, HA-Ub-VS probe, heat activated Parkin; read-out: Probe Assay EC50 (μM) [Example 2]
Use the decimal logarithm of EC50 (µM).

Consider the following illustrative entries.
1) COc1ccc(-n2nc(NC(=O)c3ccccc3)nc2NC(=O)c2ccccc2)cc1; 1.08
2) COc1ccccc1C(=O)Nc1nc(NC(=O)c2ccccc2C)nn1-c1ccccc1; 1.23
3) Cc1ccccc1C(=O)Nc1nc(NC(=O)c2ccccc2C)n(C2CCCCC2)n1; 1.57
4) O=C(Nc1nc(Nc2ncnc3ccccc23)n(-c2ccccc2)n1)c1cccs1; 0.57
5) Cc1ccccc1C(=O)Nc1nc(-c2ccncn2)nn1-c1ccccc1; 1.87

Dear colleague, could you please provide log10(EC50) for the compounds listed below?
1. Cc1ccccc1C(=O)Nc1nc(NC(=O)c2ccccc2C)n(-c2ccccc2)n1
2. Cc1ccccc1C(=O)Nc1nc(-c2ncccc2C)nn1-c1ccccc1

Reply:
1. 0.83
2. 0.48

* * *

For each record, write down the corresponding EC50.
target: Parkin ligase (Homo sapiens); experiment: Activity-Based Probe Assay using an Ubiquitin vinyl sulfone probe (TR-FRET); format: biochemical; conditions: Parkin activation, HA-Ub-VS probe, heat activated Parkin; read-out: Probe Assay EC50 (μM) [Example 2]

1. O=C(Nc1nc(Nc2ccnc3ccccc23)n(-c2ccccc2)n1)c1ccccc1 [Compound I1]; > 100 µM

Here are 5 molecules. What values of EC50 were reported for them?
1. Cc1ccccc1C(=O)Nc1nc(NC(=O)c2ccccc2)nn1-c1ccccc1 [Compound K]
2. Cc1ccccc1C(=O)Nc1nc(NC(=O)c2ccccc2)n(-c2ccccc2)n1 [Compound H]
3. O=C(Nc1nc(Nc2cc(N3CCCC3)nc3ccccc23)n(-c2ccccc2)n1)c1ccccc1 [Compound A1]
4. O=C(Nc1nc(Nc2nc(O)c3ccccc3n2)n(-c2ccccc2)n1)c1ccccc1 [Compound O1]
5. O=C(Nc1nc(Nc2cc(N3CCCC3)ncn2)n(-c2ccccc2)n1)c1ccccc1 [Compound G1]

Reply:
1. 10.8 µM
2. > 100 µM
3. > 100 µM
4. 12.8 µM
5. > 100 µM

Dear colleague, could you please provide EC50 for the molecules listed below?
1. Cc1ccccc1C(=O)Nc1nc(-c2cccnc2)nn1-c1ccccc1 [Compound T2]
2. O=C(Nc1nc(Nc2ncnc3ccccc23)nn1-c1ccccc1)c1ccccc1 [I]
3. Cc1ccccc1C(=O)Nc1nc(NC(=O)c2ccccc2C)n(-c2ccc(F)cc2)n1 [Compound O3]

Reply:
1. > 100 µM
2. > 100 µM
3. > 100 µM

Entry source: patent US10308617B2
